B1: NP_015628.1 (parent)
chain: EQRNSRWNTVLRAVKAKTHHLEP

- Variants of: B1
- PROCEDURE_TEXT: protein stability index of a GFP-peptide fusion (GPS, HEK-293T) (PSI 1-6); higher = more stable;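 further: lentivirally expressed fusion library, cells FACS-sorted into six equal-sized GFP/DsRed ratio bins, PSI computed from sequencing read fractions per bin weighted by bin number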
- RUN_PARAMETERS: c terminus: native
REPORTED_ENDPOINT: protein stability index
The answer should be a number; do not append a unit.

# query: protein stability index of entry EQRNSRWNTVGRAVKAKTHHLEP [L11G]
4.32

# query: protein stability index of entry EQRNSRWNTVLRAAKAKTHHLEP [V14A]
3.23

# query: protein stability index of entry EQRNSRWNTVLRAVKQKTHHLEP [A16Q]
2.99

# query: protein stability index of entry EQRNSRWNTVLRAVKAATHHLEP [K17A]
2.77

# query: protein stability index of entry EQRNSRWNTVLWAVKAKTHHLEP [R12W]
2.67

# query: protein stability index of entry EQRNSRWRTVLRAVKAKTHHLEP [N8R]
2.53

# query: protein stability index of entry EQRNSRWNTVLRAEKAKTHHLEP [V14E]
2.45

# query: protein stability index of entry EQRNTRWNTVLRAVKAKTHHLEP [S5T]
2.93

# query: protein stability index of entry EQRNSRWNTVLRAWKAKTHHLEP [V14W]
3.26

# query: protein stability index of entry EQRNSRMNTVLRAVKAKTHHLEP [W7M]
5.33

# query: protein stability index of entry EQRNSRWNTVLRAVKAKVHHLEP [T18V]
3.12

# query: protein stability index of entry EQFNSRWNTVLRAVKAKTHHLEP [R3F]
3.35

# query: protein stability index of entry EQRFSRWNTVLRAVKAKTHHLEP [N4F]
3.17

# query: protein stability index of entry EQRNSRWNTVLRAVKAKTHYLEP [H20Y]
3.25

# query: protein stability index of entry EQRASRWNTVLRAVKAKTHHLEP [N4A]
2.5

# query: protein stability index of entry EQRNSRWNTVLIAVKAKTHHLEP [R12I]
2.46

# query: protein stability index of entry EQRNSRWNTNLRAVKAKTHHLEP [V10N]
3.76

# query: protein stability index of entry EQRNSRWNTVLRAVKAKEHHLEP [T18E]
3.26

# query: protein stability index of entry EQRNSRSNTVLRAVKAKTHHLEP [W7S]
5.32

# query: protein stability index of entry EQRNSRWNTVLRGVKAKTHHLEP [A13G]
2.89

# query: protein stability index of entry EQRNSRWNTVLRAVKAKTHHLEH [P23H]
4.88

# query: protein stability index of entry EQRNSRWNTVLYAVKAKTHHLEP [R12Y]
2.5

# query: protein stability index of entry EQANSRWNTVLRAVKAKTHHLEP [R3A]
3.25

# query: protein stability index of entry EQRNSRWNTVLRAVKAQTHHLEP [K17Q]
2.67

# query: protein stability index of entry EQRNSRCNTVLRAVKAKTHHLEP [W7C]
5.2

# query: protein stability index of entry EQRNSRWNTVLRWVKAKTHHLEP [A13W]
2.93

# query: protein stability index of entry EQRNSRWNTVLRALKAKTHHLEP [V14L]
3.05

# query: protein stability index of entry EQRNFRWNTVLRAVKAKTHHLEP [S5F]
2.61

# query: protein stability index of entry EQRNSRWNTVLRLVKAKTHHLEP [A13L]
2.69

# query: protein stability index of entry EQRLSRWNTVLRAVKAKTHHLEP [N4L]
2.87

# query: protein stability index of entry EQYNSRWNTVLRAVKAKTHHLEP [R3Y]
3.7

# query: protein stability index of entry EQRNSRWNTVLRAVMAKTHHLEP [K15M]
3.33

# query: protein stability index of entry EQRNSRWNTVLRAMKAKTHHLEP [V14M]
3.07

# query: protein stability index of entry EQRNSRWNTVLRAVGAKTHHLEP [K15G]
3.31

# query: protein stability index of entry EQRNSRWNTVLRAPKAKTHHLEP [V14P]
2.73

# query: protein stability index of entry EQRNSRWNTVLRRVKAKTHHLEP [A13R]
2.57

# query: protein stability index of entry EQRNSRWNTVKRAVKAKTHHLEP [L11K]
4.86

# query: protein stability index of entry EQRNSRWNTMLRAVKAKTHHLEP [V10M]
2.89

# query: protein stability index of entry EQRNSRWNTVLRATKAKTHHLEP [V14T]
2.97

# query: protein stability index of entry EQRNSQWNTVLRAVKAKTHHLEP [R6Q]
2.62

# query: protein stability index of entry EQRNSRWNTVLRAVKFKTHHLEP [A16F]
3.02

# query: protein stability index of entry EQRNSRWNTVLRAVKAKTDHLEP [H19D]
3.81

# query: protein stability index of entry EQNNSRWNTVLRAVKAKTHHLEP [R3N]
3.07

# query: protein stability index of entry EQPNSRWNTVLRAVKAKTHHLEP [R3P]
3.25

# query: protein stability index of entry EQRNSRWNTVLRAVTAKTHHLEP [K15T]
2.99

# query: protein stability index of entry EQRNSRWNTVLPAVKAKTHHLEP [R12P]
3.05

Taken from the supplement of paper PMC10567573.
